- testDetails: Cytotoxicity against African green monkey cells assessed as cell growth inhibition by Alamar blue staining based fluorescence assay
- Assay type: toxicity
- conditionLabel: African green monkey (Chlorocebus sabaeus), Vero cells
reportedEndpoint: IC50 (µM)
Give the quantity in µM, number only.

For reference, reported IC50 for C=C(C)C1C[C@H](O)C2(C)CCCC3C2C1CC(C)C3(C)CC/C(C)=C/[C@@H](O)[C@@H]1CCC(=O)c2c(OC)cc(OC)cc21 (stereo partly specified) stands at 23.7

###

- System: L1210
- testDetails: Antiproliferative activity against mouse L1210 cells assessed as inhibition of cell proliferation incubated for 48 hrs by Coulter counter method
- Type: functional, cell-based
- conditionLabel: L1210, 48 h
reportedEndpoint: IC50 (nM)
The reply should be a number in nM, with the unit left off.

Noted for CN1C=C(C(N)=O)[C@@H]2C[C@H](O)[C@@](NC(=O)CS(N)(=O)=O)(C(=O)O)[C@@H]2C1 : its IC50 reads 840

###

- testDetails: Cytotoxicity against human BJ cells assessed as cell growth inhibition incubated for 72 hrs by Cell Titer Glo assay relative to control
- Assay type: toxicity, cell-based
reportedEndpoint: inhibition at 72 h

Form: compound = CC1(C)CCC[C@]2(C)[C@H]3Cc4c(c(O)c(O)c5nc(C(=O)O)ccc45)O[C@]3(C)CC[C@@H]12 ; inhibition at 72 h = 43%

###

Assign pIC50 to each entry below.
- Tested on: HCT-116
- testDetails: Cytotoxicity against human HCT-116 cells assessed as cell growth inhibition
- Type: functional, cell-based
Kindly note that pIC50 refers to -log10 of the concentration in mol/L and answer with the value alone.

Input COC(=O)c1c(C)cc2c(c(C)c1=O)O[C@@]1(C)CC[C@H]3C(C)(C)OC(=O)C=C[C@]3(C)[C@@H]1C2 . Output pIC50: 4.86

Entry C=C[C@]1(C)C=C2C(=O)C(O)=C3C(C)(C)CC[C@@H](O)[C@]3(C)[C@@]2(O)CC1 , pIC50 reported as 4.82

Measured pIC50, C=C[C@]1(C)C=C2C(=O)C(O)=C3[C@](C)(CO)CC=C[C@]3(C)[C@@]2(O)CC1 : 4.82

Memo: COC(=O)c1c(C)cc2c(c(C)c1=O)O[C@@]1(C)CC[C@H]3C(C)(C)OC(=O)C[C@@H](OC(C)=O)[C@]3(C)[C@@H]1C2 , reported pIC50: 4.96

For reference, reported pIC50 for C=C[C@]1(C)C=C2C(=O)C(O)=C3[C@](C)(CO)CC[C@@H](O)[C@]3(C)[C@@]2(O)CC1 stands at 4.28

So, COC(=O)c1c(C)cc2c(c(C)c1=O)O[C@@]1(C)CC[C@H]3C(C)(C)OC(=O)C[C@@H](O)[C@]3(C)[C@@H]1C2 ? Its pIC50 was 4.88

###

- measuredTarget: Tyrosine-protein phosphatase non-receptor type 1 (Homo sapiens, UniProt P18031)
- Sequence (P18031 whole entry): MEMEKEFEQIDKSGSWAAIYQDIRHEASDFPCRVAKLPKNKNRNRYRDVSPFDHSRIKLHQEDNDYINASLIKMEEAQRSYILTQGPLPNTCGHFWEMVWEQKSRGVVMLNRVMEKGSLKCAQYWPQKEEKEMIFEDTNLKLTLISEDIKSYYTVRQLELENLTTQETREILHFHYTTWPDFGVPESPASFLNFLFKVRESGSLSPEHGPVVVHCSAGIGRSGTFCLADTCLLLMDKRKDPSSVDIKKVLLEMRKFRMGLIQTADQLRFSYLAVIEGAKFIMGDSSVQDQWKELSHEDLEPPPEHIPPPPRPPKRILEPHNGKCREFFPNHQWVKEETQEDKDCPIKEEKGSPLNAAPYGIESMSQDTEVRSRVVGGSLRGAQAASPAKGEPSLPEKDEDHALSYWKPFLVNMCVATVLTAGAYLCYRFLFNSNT
- testDetails: Inhibition of recombinant human PTP1B expressed in Escherichia coli using p-nitrophenyl phosphate as substrate preincubated for 15 mins followed by substrate addition measured after 60 mins by absorbance based assay
Kindly supply the reported pIC50 values for the records listed here.
Note on units: pIC50 is unitless, being -log10 of a concentration expressed in mol/L.

// field: pIC50; key: CC(C)(O)[C@H]1OC2CC[C@@]3(C)[C@@](O)(CC[C@H]4C[C@]5(OCNc6ccccc65)C(=O)[C@@]43C)C2=CC1=O (some centres not stated) ; value = 5.77

For reference, reported pIC50 for CC1(C)Oc2c(nc3c4c2C(=O)CC[C@]4(C)[C@@]2(C)c4[nH]c5ccccc5c4C[C@@H]2C3)[C@H]1O stands at 5.77

###

- System: A549
- testDetails: Cytotoxicity against human A549 cells assessed as cell growth inhibition by SRB assay
- Assay type: functional, cell-based
reportedEndpoint: pIC50
FYI, pIC50 means -log10 of a concentration in mol per litre.

Sure, the documented pIC50 for CO[C@]12C=C3[C@@H]4O[C@@H]4[C@H](OC(C)=O)[C@H](C)[C@@]3(C)C[C@]13O[C@]3(C)CO2 is 5.28

###

- testDetails: Suppression of spontaneous calcium oscillation amplitude in C57Bl/6J mouse primary neocortical neuron incubated for 15 mins by Fluo-4 dye based assay
- Format: functional, cell-based
- conditionLabel: 0.25 h
reportedEndpoint: IC50 (nM)
// note: answer is a bare numeric in nM

Memo: C=C1CC[C@H]2C(C)(C)[C@@H](O)CC[C@]2(C)[C@H]1CC(=O)[C@]1(O)C=C(CSC[C@H](O)C(=O)OC)C(=O)C1 , reported IC50: 1800

###

- System: MCF7
- testDetails: Cytotoxicity against human MCF7 cells assessed as cell growth inhibition by Alamar blue staining based fluorescence assay
- Format: functional
reportedEndpoint: pIC50
// returns pIC50 (minus log10 of molar concentration), number only

Record summary for C=C(C)C1C[C@H](O)C2(C)CCCC3C2C1CC(C)C3(C)CC/C(C)=C/[C@@H](O)[C@@H]1CCC(=O)c2c(OC)cc(OC)cc21 (stereo partly specified) : reported pIC50 = 5.11

###

- testDetails: Cytotoxicity against human HTB26 cells assessed as cell growth inhibition by Alamar blue staining based fluorescence assay
- Type: functional
reportedEndpoint: pIC50
pIC50 here is simply -log10 of the concentration when that concentration is written in mol/L.

pIC50 for C=C(C)C1C[C@H](O)C2(C)CCCC3C2C1CC(C)C3(C)CC/C(C)=C/[C@@H](O)[C@@H]1CCC(=O)c2c(OC)cc(OC)cc21 (stereo partly specified) is 5.00

###

- System: HL-60
- testDetails: Cytotoxicity against human HL-60 cells assessed as cell growth inhibition by MTT assay
- Format: functional, cell-based
reportedEndpoint: IC50 (µM)
Express your answer in µM, writing the number without its unit.

Short answer on HL-60 for CO[C@]12C=C3[C@@H]4O[C@@H]4[C@H](OC(C)=O)[C@H](C)[C@@]3(C)C[C@]13O[C@]3(C)CO2 , IC50: 28.3
